Tested on: SN12C renal
Assay: NCI-60 one-dose screen, 48 h (100 = growth as untreated, 0 = no growth, -100 = all killed)
Conditions: 10 µM unless noted
Compounds without any hit were thinned out: in the full panel of roughly 83,000, 20% have a hit. Activity calls are given as the source filed them. How the source made its calls: active means growth percent below 10; inactive means the rest.
readout: growth

[
  {
    "molecule": "C=C1CC[C@@H](C(=O)OC)Cc2nc(C)ccc21",
    "test.value": "96.4% (inactive)"
  },
  {
    "molecule": "CC(=O)n1c(/C(C#N)=C/c2ccc(N(C)C)cc2)cc2ccccc21",
    "test.value": "42.9% (inactive)"
  },
  {
    "molecule": "NC(Cc1ccc(O)cc1)C(=O)N/N=C/c1ccccc1O (configuration not stated)",
    "test.value": "114% (inactive)"
  },
  {
    "molecule": "Cc1cccc2c1NC(=O)[C@@]21[C@H](C(=O)c2ccccc2)[C@]2(C(=O)Nc3ccccc32)[C@H]2CCCN21",
    "test.value": "10.3% [100 µM] (inactive)"
  },
  {
    "molecule": "CCOC(=O)C/C(=C\\c1ccccc1)C(C)=O",
    "test.value": "105% (inactive)"
  },
  {
    "molecule": "COc1ccc(-n2c(/C=C/c3ccc(O)c(OC)c3)cc(/C=C/c3ccc(O)c(OC)c3)nc2=O)cc1",
    "test.value": "66.6% (inactive)"
  }
]

Task item: Query (molecule): O=C(NC(Cc1cn(Cc2ccccc2)cn1)C(=O)O)OCC1c2ccccc2-c2ccccc21 (configuration not stated) ; field requested: growth
Reply: 108% (inactive)

* * *

System: KM12 colon
Assay: NCI-60 one-dose screen, 48 h (100 = growth as untreated, 0 = no growth, -100 = all killed)
Settings: 10 µM unless noted
The panel holds about 83,000 compounds, 20% with a hit somewhere; the sample as a whole holds those more often.
readout: growth (%)
# value in %; strip the unit string

Please review the following examples before continuing.
[
  {
    "molecule": "COC(=O)[C@]12CC[C@@H](C)[C@H](C)[C@@H]1C1=CC(=O)[C@@H]3[C@@]4(C)C[C@@H](O)[C@H](O)[C@@]5(C)COC(=C45)C[C@@]3(C)[C@]1(C)CC2",
    "growth [%]": 34.6
  },
  {
    "molecule": "CCCCC(=O)OC1CCCCC1C (centres undefined)",
    "growth [%]": 99.2
  },
  {
    "molecule": "Cc1ccc(-c2nn(Cc3cn(-c4cc(C)nc5ccccc45)nn3)c3ncnc(N)c23)cc1",
    "growth [%]": 74.4
  },
  {
    "molecule": "NS(=O)(=O)c1ccc(CCNC(=O)/C=C/c2ccc(Cl)cc2)cc1",
    "growth [%]": 98.6
  },
  {
    "molecule": "CCCCC[C@H]1C/C=C2/C(=O)C(Cl)=C[C@@H]2C/C=C\\CCCC(=O)O1",
    "growth [%]": -33.9
  }
]

Task item: Query (molecule): CCN1CCN(C(=O)[C@]23CCC(C)(C)C[C@H]2C2=CC[C@@H]4[C@@]5(C)CC/C(=N/O)C(C)(C)[C@@H]5CC[C@@]4(C)[C@]2(C)CC3)CC1 ; field requested: growth
Reply: 72.1

Task item: Query (molecule): Nc1ccc(Cl)cn1 ; field requested: growth
Reply: 100

Task item: Query (molecule): CC(=O)c1c(C)[nH]c(-c2nc3ccc(N4CCN(C)CC4)cc3[nH]2)c1-c1ccc(OCC2CCOCC2)cc1 ; field requested: growth
Reply: 34.2

Task item: Query (molecule): N#Cc1c(-c2ccc(O)cc2)c2c(N)nn(-c3ccccc3)c2[nH]c1=O ; field requested: growth
Reply: 102
